Cited source: paper PMC4336329

Listed here: items and their measured hERG current change (%, negative = inhibition) at 10uM.
Molecular target: human ether-à-go-go-related gene (hERG) potassium channel (human, UniProt Q12809)
Sequence (Q12809 whole entry, looked up): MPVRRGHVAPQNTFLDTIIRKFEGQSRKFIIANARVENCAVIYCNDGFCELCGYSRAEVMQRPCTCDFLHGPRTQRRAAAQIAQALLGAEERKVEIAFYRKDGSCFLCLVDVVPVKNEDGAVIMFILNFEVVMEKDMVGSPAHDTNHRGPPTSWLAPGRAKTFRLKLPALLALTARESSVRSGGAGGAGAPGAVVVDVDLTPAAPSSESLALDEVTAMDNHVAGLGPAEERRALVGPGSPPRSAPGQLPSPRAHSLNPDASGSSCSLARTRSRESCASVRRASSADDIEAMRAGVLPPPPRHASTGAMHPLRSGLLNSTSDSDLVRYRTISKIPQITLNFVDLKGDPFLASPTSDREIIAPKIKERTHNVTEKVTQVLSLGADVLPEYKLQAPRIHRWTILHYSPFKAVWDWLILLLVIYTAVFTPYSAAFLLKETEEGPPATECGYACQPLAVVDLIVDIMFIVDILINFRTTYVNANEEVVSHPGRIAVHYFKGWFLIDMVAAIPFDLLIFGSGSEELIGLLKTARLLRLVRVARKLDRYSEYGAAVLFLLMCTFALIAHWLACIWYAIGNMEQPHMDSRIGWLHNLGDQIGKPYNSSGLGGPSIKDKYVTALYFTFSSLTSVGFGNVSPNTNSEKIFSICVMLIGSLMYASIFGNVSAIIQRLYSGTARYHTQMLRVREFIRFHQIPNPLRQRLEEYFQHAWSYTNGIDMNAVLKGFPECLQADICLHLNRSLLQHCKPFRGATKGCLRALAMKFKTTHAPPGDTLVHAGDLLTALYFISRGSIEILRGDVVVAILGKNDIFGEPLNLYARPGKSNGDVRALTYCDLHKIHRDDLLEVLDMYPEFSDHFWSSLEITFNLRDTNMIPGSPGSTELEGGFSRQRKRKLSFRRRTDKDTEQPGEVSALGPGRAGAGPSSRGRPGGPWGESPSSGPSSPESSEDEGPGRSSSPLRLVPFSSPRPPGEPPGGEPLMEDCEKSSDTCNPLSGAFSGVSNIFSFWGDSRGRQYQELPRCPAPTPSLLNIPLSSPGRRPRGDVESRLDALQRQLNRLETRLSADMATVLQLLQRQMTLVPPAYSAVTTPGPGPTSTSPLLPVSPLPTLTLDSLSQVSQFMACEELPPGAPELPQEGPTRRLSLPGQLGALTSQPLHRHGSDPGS
Test: primary screen, population patch clamp on CHO cells stably expressing hERG; higher = less effect of the substance
Among all 310,000 compounds or so, about 14,000 (4.5%) showed an effect of 50% or more. The effect is printed as a negative number. Many of the other results were omitted from the sample, so strong results are more common in it than they were.
Recorded Metric: hERG current change (%, negative = inhibition) at 10uM (%)

>  <Compound>
O=C(CCN1CCOCC1)N1CCCC(Nc2ccc(F)cc2)C1 (stereo not shown)

>  <Target Or System>
human ether-à-go-go-related gene (hERG) potassium channel (human, UniProt Q12809)

>  <Obs Value>
13.7

$$$$
>  <Compound>
O=C(c1cc(COc2ccc(F)cc2Cl)on1)N1CCCCCC1

>  <Target Or System>
human ether-à-go-go-related gene (hERG) potassium channel (human, UniProt Q12809)

>  <Obs Value>
-3.89

$$$$
>  <Compound>
COc1cccc(C(=O)NCCS(=O)(=O)NCc2cccnc2)c1

>  <Target Or System>
human ether-à-go-go-related gene (hERG) potassium channel (human, UniProt Q12809)

>  <Obs Value>
8.66

$$$$
>  <Compound>
COc1ccc(Nc2nnc(SCc3cn4c(C)cccc4n3)s2)cc1

>  <Target Or System>
human ether-à-go-go-related gene (hERG) potassium channel (human, UniProt Q12809)

>  <Obs Value>
-52.2

$$$$
>  <Compound>
CSc1ccccc1OCc1cc(C(=O)N2CCC(c3ccncc3)CC2)no1

>  <Target Or System>
human ether-à-go-go-related gene (hERG) potassium channel (human, UniProt Q12809)

>  <Obs Value>
-58.5

$$$$
>  <Compound>
COc1ccccc1C(=O)NNC(=O)c1ccc(C)cc1

>  <Target Or System>
human ether-à-go-go-related gene (hERG) potassium channel (human, UniProt Q12809)

>  <Obs Value>
9.24

$$$$
>  <Compound>
O=C(CSc1ncnc2scc(-c3ccccc3)c12)Nc1ccc(C(=O)O)cc1

>  <Target Or System>
human ether-à-go-go-related gene (hERG) potassium channel (human, UniProt Q12809)

>  <Obs Value>
8.17

$$$$
>  <Compound>
CSc1ccccc1OCc1cc(C(=O)N2CCSCC2)no1

>  <Target Or System>
human ether-à-go-go-related gene (hERG) potassium channel (human, UniProt Q12809)

>  <Obs Value>
0.366

$$$$
>  <Compound>
Cc1cccc2nc(CSc3nnc(N)s3)cn12

>  <Target Or System>
human ether-à-go-go-related gene (hERG) potassium channel (human, UniProt Q12809)

>  <Obs Value>
-9.23

$$$$
>  <Compound>
CC1CCc2nc(NC(=O)CN3CCOCC3)sc2C1 (stereo not shown)

>  <Target Or System>
human ether-à-go-go-related gene (hERG) potassium channel (human, UniProt Q12809)

>  <Obs Value>
-4.5

$$$$
>  <Compound>
O=C(c1cc(COc2c(F)cccc2F)on1)N1CCC(c2ccncc2)CC1

>  <Target Or System>
human ether-à-go-go-related gene (hERG) potassium channel (human, UniProt Q12809)

>  <Obs Value>
-38.5

$$$$
>  <Compound>
Fc1ccc(-n2c(-c3ccc4ccccc4n3)n[nH]c2=S)cc1Cl

>  <Target Or System>
human ether-à-go-go-related gene (hERG) potassium channel (human, UniProt Q12809)

>  <Obs Value>
31

$$$$
>  <Compound>
CCCN(CCO)C1CCN(CCc2ccccc2)CC1

>  <Target Or System>
human ether-à-go-go-related gene (hERG) potassium channel (human, UniProt Q12809)

>  <Obs Value>
7.14

$$$$
>  <Compound>
O=[N+]([O-])c1ccccc1NCc1ccc(Cl)cc1

>  <Target Or System>
human ether-à-go-go-related gene (hERG) potassium channel (human, UniProt Q12809)

>  <Obs Value>
-19.5

$$$$
>  <Compound>
S=C1NCCNC(=S)NCCOCCOCCOCCN1

>  <Target Or System>
human ether-à-go-go-related gene (hERG) potassium channel (human, UniProt Q12809)

>  <Obs Value>
15.2

$$$$
>  <Compound>
N#C/C(=C\c1ccc(Cl)cc1)c1nc2ncccc2[nH]1

>  <Target Or System>
human ether-à-go-go-related gene (hERG) potassium channel (human, UniProt Q12809)

>  <Obs Value>
-15.1

$$$$
>  <Compound>
O=C(c1cc(COc2ccc(F)cc2Cl)on1)N1CCCCCCC1

>  <Target Or System>
human ether-à-go-go-related gene (hERG) potassium channel (human, UniProt Q12809)

>  <Obs Value>
0.909

$$$$
>  <Compound>
Cc1cc(C)c(NC(=O)CS)c(Cl)c1

>  <Target Or System>
human ether-à-go-go-related gene (hERG) potassium channel (human, UniProt Q12809)

>  <Obs Value>
6.4

$$$$
>  <Compound>
Cc1ccc(Nc2nnc(SCc3cc(=O)n4cc(C)ccc4n3)s2)cc1

>  <Target Or System>
human ether-à-go-go-related gene (hERG) potassium channel (human, UniProt Q12809)

>  <Obs Value>
-36.6

$$$$
>  <Compound>
N/C(=N\OC(=O)c1ccccc1Cl)c1ccccc1

>  <Target Or System>
human ether-à-go-go-related gene (hERG) potassium channel (human, UniProt Q12809)

>  <Obs Value>
-16.2

$$$$
>  <Compound>
O=C(O)C(=O)O.c1ccc(CCN(Cc2ccccc2)C2CCN(C3CCCC3)CC2)cc1

>  <Target Or System>
human ether-à-go-go-related gene (hERG) potassium channel (human, UniProt Q12809)

>  <Obs Value>
-77

$$$$
>  <Compound>
Cc1ccc(NC(=O)N2CCN(Cc3ccc4c(c3)OCO4)CC2)cc1

>  <Target Or System>
human ether-à-go-go-related gene (hERG) potassium channel (human, UniProt Q12809)

>  <Obs Value>
-33.8

$$$$
>  <Compound>
CCCCN(Cc1ccccc1)C1CCN(Cc2ccccc2)CC1

>  <Target Or System>
human ether-à-go-go-related gene (hERG) potassium channel (human, UniProt Q12809)

>  <Obs Value>
-53.5

$$$$
>  <Compound>
O=c1cc(CSc2nnc(Nc3ccccc3)s2)nc2sccn12

>  <Target Or System>
human ether-à-go-go-related gene (hERG) potassium channel (human, UniProt Q12809)

>  <Obs Value>
-27.6

$$$$
>  <Compound>
COc1cc(NC(=O)CN2CCN(Cc3ccc4c(c3)OCO4)CC2)cc(OC)c1.O=C(O)C(=O)O

>  <Target Or System>
human ether-à-go-go-related gene (hERG) potassium channel (human, UniProt Q12809)

>  <Obs Value>
-47

$$$$
>  <Compound>
Cc1ccc(-c2csc3nc[nH]c(=S)c23)cc1C

>  <Target Or System>
human ether-à-go-go-related gene (hERG) potassium channel (human, UniProt Q12809)

>  <Obs Value>
27.5

$$$$
>  <Compound>
CCn1c(SCCC(=O)O)nnc1-c1cccnc1

>  <Target Or System>
human ether-à-go-go-related gene (hERG) potassium channel (human, UniProt Q12809)

>  <Obs Value>
4.65

$$$$
>  <Compound>
O=C(CN1CCN(Cc2ccc3c(c2)OCO3)CC1)NCC(F)(F)F

>  <Target Or System>
human ether-à-go-go-related gene (hERG) potassium channel (human, UniProt Q12809)

>  <Obs Value>
5.34

$$$$
>  <Compound>
CCCN1CCC(N(CCc2ccccc2)Cc2ccccc2)CC1

>  <Target Or System>
human ether-à-go-go-related gene (hERG) potassium channel (human, UniProt Q12809)

>  <Obs Value>
-72.2

$$$$
>  <Compound>
CSc1nnc(Cn2c(=O)sc3ccccc32)n1-c1cccc(Cl)c1

>  <Target Or System>
human ether-à-go-go-related gene (hERG) potassium channel (human, UniProt Q12809)

>  <Obs Value>
-37.9

$$$$
>  <Compound>
COc1cc(CCC(=O)Nc2ccc(Cl)c(C(F)(F)F)c2)cc(OC)c1OC

>  <Target Or System>
human ether-à-go-go-related gene (hERG) potassium channel (human, UniProt Q12809)

>  <Obs Value>
13.1

$$$$

====

Target: human ether-à-go-go-related gene (hERG) potassium channel (human, UniProt Q12809)
Test: primary screen, population patch clamp on CHO cells stably expressing hERG; higher = less effect of the substance
Hit rate of the full screen: of about 310,000 compounds, about 14,000 (4.5%) showed an effect of 50% or more. The effect is printed as a negative number. The sample as a whole holds a higher share of strong results than the screen did.
Label yes (1) when hERG current change (%, negative = inhibition) at 10uM is at or above -20%; anything below gets no (0).

>  <Compound>
Cc1cccc(N/C(=N/S(=O)(=O)c2ccccc2)c2ccccc2)n1

>  <Target Or System>
human ether-à-go-go-related gene (hERG) potassium channel (human, UniProt Q12809)

>  <Category>
no (0)

$$$$
>  <Compound>
N#CC(Cc1ccccc1OC(F)F)c1nc2ccccc2[nH]1 (stereo not drawn)

>  <Target Or System>
human ether-à-go-go-related gene (hERG) potassium channel (human, UniProt Q12809)

>  <Category>
yes (1)

$$$$
>  <Compound>
COC(=O)c1ccc(OCC2c3cc(OC)c(OC)cc3CCN2C(C)=O)cc1 (stereo not drawn)

>  <Target Or System>
human ether-à-go-go-related gene (hERG) potassium channel (human, UniProt Q12809)

>  <Category>
yes (1)

$$$$
>  <Compound>
Cl.Oc1ccc(C2=CSC3=NCCN23)cc1O

>  <Target Or System>
human ether-à-go-go-related gene (hERG) potassium channel (human, UniProt Q12809)

>  <Category>
yes (1)

$$$$
>  <Compound>
CCc1ccc(OCC2c3cc(OC)c(OC)cc3CCN2C(C)=O)cc1 (stereo not drawn)

>  <Target Or System>
human ether-à-go-go-related gene (hERG) potassium channel (human, UniProt Q12809)

>  <Category>
yes (1)

$$$$
>  <Compound>
Br.Cc1ccc(C2=CSC3=NCCN23)cc1

>  <Target Or System>
human ether-à-go-go-related gene (hERG) potassium channel (human, UniProt Q12809)

>  <Category>
yes (1)

$$$$
>  <Compound>
Br.C1=C(c2ccccc2)N2CCN=C2S1

>  <Target Or System>
human ether-à-go-go-related gene (hERG) potassium channel (human, UniProt Q12809)

>  <Category>
yes (1)

$$$$
>  <Compound>
O=C(Nc1nc2ccccc2[nH]1)c1ccc(OC(F)F)cc1

>  <Target Or System>
human ether-à-go-go-related gene (hERG) potassium channel (human, UniProt Q12809)

>  <Category>
yes (1)

$$$$
>  <Compound>
O=C(NC1CCCC1)c1cc(-c2ccc(Cl)cc2Cl)on1

>  <Target Or System>
human ether-à-go-go-related gene (hERG) potassium channel (human, UniProt Q12809);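 further: peak tail current of the secondary pulse compared with the same well before compound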

>  <Category>
yes (1)

$$$$
>  <Compound>
COc1cc2c(cc1OC)C(COc1ccc([N+](=O)[O-])cc1)N(C(C)=O)CC2 (stereo not drawn)

>  <Target Or System>
human ether-à-go-go-related gene (hERG) potassium channel (human, UniProt Q12809);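 further: peak tail current of the secondary pulse compared with the same well before compound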

>  <Category>
no (0)

$$$$
>  <Compound>
Br.CC(C)Cc1ccc(C2=CSC3=NCCN23)cc1

>  <Target Or System>
human ether-à-go-go-related gene (hERG) potassium channel (human, UniProt Q12809);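 further: peak tail current of the secondary pulse compared with the same well before compound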

>  <Category>
no (0)

$$$$
>  <Compound>
COc1cc2c(cc1OC)C(COc1ccc(F)cc1)NCC2 (stereo not drawn)

>  <Target Or System>
human ether-à-go-go-related gene (hERG) potassium channel (human, UniProt Q12809);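 further: peak tail current of the secondary pulse compared with the same well before compound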

>  <Category>
no (0)

$$$$
